List of pIC50 values.
- Target Under Test: JAK3 (Homo sapiens, UniProt P52333)
- Construct: All enzymes only contain the catalytic domain; His (N); purchased Carna Bioscience, Inc; host or cells: baculovirus expression system
- Sequence (P52333 822-1111 limits assumed): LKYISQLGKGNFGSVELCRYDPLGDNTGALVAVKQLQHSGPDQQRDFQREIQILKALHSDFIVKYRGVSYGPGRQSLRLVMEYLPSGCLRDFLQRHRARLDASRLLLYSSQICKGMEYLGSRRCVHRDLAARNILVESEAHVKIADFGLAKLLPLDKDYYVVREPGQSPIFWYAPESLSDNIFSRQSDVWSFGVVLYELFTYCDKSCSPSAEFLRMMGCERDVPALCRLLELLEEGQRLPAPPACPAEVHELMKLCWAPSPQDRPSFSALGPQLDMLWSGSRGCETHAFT
- Protocol Description: In vitro enzyme assay (cell-free HTRF kinase assay), JAK3
- Assay type: biochemical
- Test Parameters: catalytic domain, His-tag; ATP 3 μM, SRCtide 100 nM, reaction 30 min
pIC50: −log10 of the molar value.

In the examples that follow, each entry is paired with its recorded pIC50.
Compound	pIC50
N#Cc1cc(Cl)c(C(=O)c2c[nH]c3c(NC(=O)C4CC4)nccc23)c(Cl)c1 [Compound No. 39]	> 7.30
O=C(NCCCO)c1cc(Cl)c(C(=O)c2c[nH]c3c(NC(=O)C4CC4)nccc23)c(Cl)c1 [Compound No. 30]	> 6.30
O=C(NCC1CC1)c1cc(Cl)c(C(=O)n2ccc3c(NC(=O)C4CC4)nccc32)c(Cl)c1 [Compound No. 170]	> 6.00
CN(C)CCNC(=O)c1cc(Cl)c(C(=O)c2c[nH]c3c(NC(=O)C4CC4)nccc23)c(Cl)c1 [Compound No. 33]	> 7.00
O=C(c1c(Cl)cc(CO)cc1Cl)c1c[nH]c2c(NC(=O)C3CC3)nccc12 [Compound No. 58]	> 6.00

Query: Suppose we examine the compound CNCc1cc(Cl)c(C(=O)c2c[nH]c3c(NC(=O)C4CC4)nccc23)c(Cl)c1 [Compound No. 66] ; what pIC50 value has been reported?
Response: > 7.30

Query: Suppose we examine the compound Nc1cc(Cl)c(C(=O)c2c[nH]c3c(NC(=O)C4CC4)nccc23)c(Cl)c1 [Compound No. 26] ; what pIC50 value has been reported?
Response: > 7.00

Query: Suppose we examine the compound N#Cc1cc(Cl)c(C(=O)n2ccc3cnc(NC(=O)C4CC4)cc32)c(Cl)c1 [Compound No. 137] ; what pIC50 value has been reported?
Response: > 6.30

====

- Target Under Test: JAK1 (Homo sapiens, UniProt P23458)
- Construct: JAK1 (aa 850-1154) and TYK2 (aa 871-1187) are expressed with an N-terminally fused GST-tag; GST (N)
- Sequence (P23458 850-1154): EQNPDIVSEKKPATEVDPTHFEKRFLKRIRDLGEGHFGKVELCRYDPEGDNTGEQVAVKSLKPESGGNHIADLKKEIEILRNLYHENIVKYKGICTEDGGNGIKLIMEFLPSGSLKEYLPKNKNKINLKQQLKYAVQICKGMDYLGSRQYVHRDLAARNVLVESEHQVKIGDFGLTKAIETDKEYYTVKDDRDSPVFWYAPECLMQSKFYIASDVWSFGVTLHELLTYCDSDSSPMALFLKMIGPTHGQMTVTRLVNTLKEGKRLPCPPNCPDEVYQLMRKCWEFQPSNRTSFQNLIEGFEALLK
- Protocol Description: In vitro enzyme assay (cell-free HTRF kinase assay), JAK1
- Test Parameters: catalytic domain aa 850-1154, GST-tag; ATP 60 μM, SRCtide 400 nM, reaction 120 min
List of IC50 values.

Molecule	Reported Property	Recorded Measurement
O=C(NCCc1cccnc1)c1cc(Cl)c(C(=O)n2ccc3c(NC(=O)C4CC4)nccc32)c(Cl)c1	IC50	< 1000 nM

Query: Suppose we examine the compound "CCOCCCNC(=O)c1cc(Cl)c(C(=O)c2c[nH]c3c(NC(=O)C4CC4)nccc23)c(Cl)c1" ; what IC50 value has been reported?
Response: < 500 nM

Query: Suppose we examine the compound "O=C(NCC1CC1)c1cc(Cl)c(C(=O)n2ccc3c(NC(=O)C4CC4)nccc32)c(Cl)c1" ; what IC50 value has been reported?
Response: < 500 nM

Query: Suppose we examine the compound "CCOCCCNC(=O)c1cc(F)c(C(=O)c2c[nH]c3c(NC(=O)C4CC4)nccc23)c(F)c1" ; what IC50 value has been reported?
Response: < 500 nM

Query: Suppose we examine the compound "N#Cc1cc(Cl)c(C(=O)n2ccc3c(NC(=O)C4CC4)nccc32)c(Cl)c1" ; what IC50 value has been reported?
Response: < 1000 nM

Query: Suppose we examine the compound "O=C(NCCN1CCCCC1)c1cc(Cl)c(C(=O)c2c[nH]c3c(NC(=O)C4CC4)nccc23)c(Cl)c1" ; what IC50 value has been reported?
Response: < 500 nM

Query: Suppose we examine the compound "O=C(O)CNC(=O)c1cc(Cl)c(C(=O)c2c[nH]c3c(NC(=O)C4CC4)nccc23)c(Cl)c1" ; what IC50 value has been reported?
Response: < 500 nM

====

- Target Under Test: JAK2 (Homo sapiens)
- Construct: All enzymes only contain the catalytic domain; His (N)
- Protocol Description: In vitro enzyme assay (cell-free HTRF kinase assay), JAK2
- Test Parameters: catalytic domain, His-tag; ATP 10 μM, SRCtide 25 nM, reaction 30 min
Reported Property: IC50

In the examples that follow, each entry is paired with its recorded IC50.
Compound	Target Under Test	Recorded Measurement
COCCNC(=O)Nc1cc(Cl)c(C(=O)n2ccc3c(NC(=O)C4CC4)nccc32)c(Cl)c1 [Compound No. 111]	JAK2 (Homo sapiens)	< 500 nM
CC(=O)Nc1nccc2c(C(=O)c3c(Cl)cc(C(=O)NCCN4CCCC4)cc3Cl)c[nH]c12 [Compound No. 44]	JAK2 (Homo sapiens)	< 1000 nM
O=C(NCCN1CCCCC1)c1cc(Cl)c(C(=O)c2c[nH]c3c(NC(=O)C4CC4)nccc23)c(Cl)c1 [Compound No. 34]	JAK2 (Homo sapiens)	< 500 nM
CC(CO)NC(=O)c1cc(Cl)c(C(=O)n2ccc3c(NC(=O)C4CC4)nccc32)c(Cl)c1 (stereo not drawn) [Compound No. 151]	JAK2 (Homo sapiens)	< 500 nM
COCCNC(=O)c1cc(Cl)c(C(=O)c2c[nH]c3c(NC(=O)C4CC4)nccc23)c(Cl)c1 [Compound No. 16]	JAK2 (Homo sapiens)	< 500 nM

Attention now shifts to the item below.
Query: Suppose we examine the compound O=C(NCCF)c1cc(Cl)c(C(=O)n2ccc3c(NC(=O)C4CC4)nccc32)c(Cl)c1 [Compound No. 154] ; what IC50 value has been reported?
Response: < 500 nM

====

- Target Under Test: JAK2 (Homo sapiens, UniProt O60674)
- Construct: All enzymes only contain the catalytic domain; His (N)
- Sequence (O60674 849-1124 limits assumed): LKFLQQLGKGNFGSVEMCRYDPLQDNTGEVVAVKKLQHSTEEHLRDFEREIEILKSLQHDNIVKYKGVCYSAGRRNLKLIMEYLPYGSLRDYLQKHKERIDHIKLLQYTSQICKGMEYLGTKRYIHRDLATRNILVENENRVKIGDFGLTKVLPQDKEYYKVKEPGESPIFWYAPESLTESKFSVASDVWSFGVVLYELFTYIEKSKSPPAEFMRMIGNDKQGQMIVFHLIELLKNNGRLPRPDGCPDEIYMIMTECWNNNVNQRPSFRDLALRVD
- Protocol Description: In vitro enzyme assay (cell-free HTRF kinase assay), JAK2
- Test Parameters: catalytic domain, His-tag; ATP 10 μM, SRCtide 25 nM, reaction 30 min
- Method: Kinase buffer [50 mM HEPES (pH 7.5), 1 mM EGTA, 10 mM MgCl2, 2 mM DTT and 0.01% Tween-20) was prepared and dilutions of a compound of formula (I) and other reagents were subsequently made in it. […] Cell-free in vitro kinase assay was performed in 384 well plates. […] TopSeal was removed and HTRF signal was measured at 615 nm and […] (excitation at 320 or 340 nm) on Tecan M1000 Multi mode plate reader. Ratio (665 nm/615 nm)×10^4 was calculated and IC50 values were deduced from Graph-pad prism 4.2.
pIC50: −log10 of the molar value.
Reported Property: pIC50

In the examples that follow, each entry is paired with its recorded pIC50.
Compound	pIC50
O=C(c1c(Cl)cc(Br)cc1Cl)c1c[nH]c2c(NC(=O)C3CC3)nccc12	> 6.00
O=C(NCC(O)CO)c1cc(Cl)c(C(=O)n2ccc3c(NC(=O)C4CC4)nccc32)c(Cl)c1 (stereo not shown)	> 6.30
O=C(NCCCN1CCOCC1)c1cc(Cl)c(C(=O)c2c[nH]c3c(NC(=O)C4CC4)nccc23)c(Cl)c1	> 6.00

Query: Suppose we examine the compound "O=C(c1c(Cl)cccc1Cl)c1c[nH]c2c(NC(=O)C3CC3)nccc12" ; what pIC50 value has been reported?
Response: > 6.30

Query: Suppose we examine the compound "CNC(=O)c1cc(F)c(C(=O)c2c[nH]c3c(NC(=O)C4CC4)nccc23)c(F)c1" ; what pIC50 value has been reported?
Response: > 6.30

Query: Suppose we examine the compound "N#Cc1cc(Cl)c(C(=O)n2ccc3cnc(NC(=O)C4CC4)cc32)c(Cl)c1" ; what pIC50 value has been reported?
Response: > 7.30

Query: Suppose we examine the compound "CN(C)CCNC(=O)c1cc(Cl)c(C(=O)c2c[nH]c3c(NC(=O)C4CC4)nccc23)c(Cl)c1" ; what pIC50 value has been reported?
Response: > 7.00

====

List of IC50 values.
- Target Under Test: JAK1 (Homo sapiens, UniProt P23458)
- Construct: JAK1 (aa 850-1154) and TYK2 (aa 871-1187) are expressed with an N-terminally fused GST-tag; GST (N)
- Protocol Description: In vitro enzyme assay (cell-free HTRF kinase assay), JAK1
- Test Parameters: catalytic domain aa 850-1154, GST-tag; ATP 60 μM, SRCtide 400 nM, reaction 120 min

In the examples that follow, each entry is paired with its recorded IC50.
Compound	Target Under Test	IC50
O=C(Nc1nccc2c1ccn2C(=O)c1c(Cl)cc(CNCCN2CCNC2=O)cc1Cl)C1CC1 [Compound No. 165]	JAK1 (Homo sapiens, UniProt P23458)	< 1 µM
O=C(NCC1CC1)c1cc(Cl)c(C(=O)c2c[nH]c3c(NC(=O)C4CC4)nccc23)c(Cl)c1 [Compound No. 55]	JAK1 (Homo sapiens, UniProt P23458)	< 0.5 µM
N#Cc1cc(F)c(C(=O)c2c[nH]c3c(NC(=O)C4CC4)nccc23)c(F)c1 [Compound No. 51]	JAK1 (Homo sapiens, UniProt P23458)	< 0.5 µM

Attention now shifts to the item below.
Query: Suppose we examine the compound CN(C)CCNC(=O)c1cc(F)c(C(=O)c2c[nH]c3c(NC(=O)C4CC4)nccc23)c(F)c1 [Compound No. 63] ; what IC50 value has been reported?
Response: < 0.5 µM
